- recorded_conditions: Liquid; Resistive pulse heating
assay_readout: Critical temperature (K)

{"molecule": "OCCOCCOCCOCCOCCOCCO [3,6,9,12,15-pentaoxaheptadecane-1,17-diol]", "Critical temperature / K": 868}
{"molecule": "OCCOCCOCCO [triethylene glycol]", "Critical temperature / K": 788}
{"molecule": "OCCOCCOCCOCCOCCO [3,6,9,12-tetraoxatetradecane-1,14-diol]", "Critical temperature / K": 842}
{"molecule": "OCCOCCO [diethylene glycol]", "Critical temperature / K": 753}

====

- recorded_conditions: Liquid; Resistive pulse heating
assay_readout: Critical pressure (kPa)

The examples below pair each entry with its known result.
{"compound": "OCCOCCOCCOCCOCCO [3,6,9,12-tetraoxatetradecane-1,14-diol]", "unit_symbol": "kPa", "Critical pressure": 2130}
{"compound": "OCCOCCO [diethylene glycol]", "unit_symbol": "kPa", "Critical pressure": 4830}

[P] OCCOCCOCCO [triethylene glycol]
[Q] OCCOCCOCCOCCOCCOCCO [3,6,9,12,15-pentaoxaheptadecane-1,17-diol]
Which entry has a larger number for Critical pressure, P or Q ? Answer format: the label of the selected item.
P
